experimental-details: Comparison of bioavailability of Compound A and Trimethoprim (TMP) administered by i/v injection, cats
Assay type: in vivo
details: female, cat, serum, intravenous, 2 mg/kg, cat 1; 5 hours post inj.; i/v injection at 2 mg/kg; read-out: Serum conc. of TMP
property: concentration at 5 h (ng/mL)
Numeric answer only, unit ng/mL assumed.

Challenge: Recorded concentration at 5 h of COc1cc(Cc2cnc(N)nc2N)cc(OC)c1OC , please.
Response given: 0

====

experimental-details: Comparison of bioavailability of Compound A and Trimethoprim (TMP) administered by i/v injection, dogs
Format: in vivo
details: male, beagle, serum, intravenous; dog M; 3 hours post inj.; i/v injection at 2 mg/kg; read-out: Serum conc. of TMP
property: concentration at 3 h (ng/mL)
Record the value in ng/mL, omitting the unit from your answer.

Challenge: Would you mind telling me what concentration at 3 h value was observed for COc1cc(Cc2cnc(N)nc2N)cc(OC)c1OC ?
Response given: 800

====

experimental-details: Comparison of bioavailability of Compound A and Trimethoprim (TMP) administered by i/v injection, cats
Assay type: in vivo
details: female, cat, serum, intravenous, 2 mg/kg, cat 3; 5 hours post inj.; i/v injection at 2 mg/kg; read-out: Serum conc. of Compound A
property: concentration at 5 h (ng/mL)
Return type: number; implicit unit ng/mL.

Challenge: Given Cc1cc(Cc2cnc(N)nc2N)c2cccnc2c1N(C)C , state its recorded concentration at 5 h.
Response given: 100

====

experimental-details: Comparison of bioavailability of Compound A and Trimethoprim (TMP) administered by i/v injection, dogs
Format: in vivo
details: female, beagle, serum, intravenous; dog F; 48 hours post inj.; i/v injection at 2 mg/kg; read-out: Serum conc. of Compound A
property: concentration at 48 h

Challenge: Look at this compound and give its reported concentration at 48 h. Cc1cc(Cc2cnc(N)nc2N)c2cccnc2c1N(C)C
Response given: 46 ng/mL

====

experimental-details: Comparison of bioavailability of Compound A and Trimethoprim (TMP) administered by i/v injection, dogs
Assay type: in vivo
details: female, beagle, serum, intravenous; dog F; 1 hours post inj.; i/v injection at 2 mg/kg; read-out: Serum conc. of TMP
property: concentration at 1 h (ng/mL)
Answer with a number only, understood to be in ng/mL.

Challenge: Need concentration at 1 h of COc1cc(Cc2cnc(N)nc2N)cc(OC)c1OC , thanks.
Response given: 1200

====

experimental-details: Comparison of bioavailability of Compound A and Trimethoprim (TMP) administered by i/v injection, dogs
Type: in vivo
details: female, beagle, serum, intravenous; dog F; 30 hours post inj.; i/v injection at 2 mg/kg; read-out: Serum conc. of TMP
property: concentration at 30 h (ng/mL)
Report as a plain number; the unit ng/mL is understood.

Challenge: # concentration at 30 h lookup, item COc1cc(Cc2cnc(N)nc2N)cc(OC)c1OC [TMP, trimethoprim]
Response given: 0

====

experimental-details: Comparison of bioavailability of Compound A and Trimethoprim (TMP) administered by i/v injection, dogs
Type: in vivo
details: both sexes, beagle, dog, intravenous; dogs; serum; i/v injection at 2 mg/kg; read-out: Est.t1/2 (converted)
property: half-life (h)
Give a bare numeral; the unit h is implied.

Cc1cc(Cc2cnc(N)nc2N)c2cccnc2c1N(C)C :: 15

Challenge: Consider the molecule shown here: COc1cc(Cc2cnc(N)nc2N)cc(OC)c1OC What is its recorded half-life?
Response given: 2.6
